- ASSAY INFO: Human HepG2 cell viability assay in 384 well format
- Type: toxicity, cell-based
- Set-up: dose 125 nL, time 70.5 hour; concentration not given beside the values
- CONDITION DESCRIPTION: HepG2 cells, read-out: Inhibition
MEASURED METRIC: cytotoxicity at 70.5 h (%)
Could you give me the number in %? Just the number is fine.

[[record]]
compound = "COC(=O)[C@@H]1Cc2c[nH]c3cccc(c23)[C@H](CC(C)C)N1"
measured_metric = "cytotoxicity at 70.5 h"
endpoint_result = -2.26

[[record]]
compound = "CC1CN(CC(=O)NC(=O)NCc2cccs2)CCN1CC(F)(F)F (stereo unspecified)"
measured_metric = "cytotoxicity at 70.5 h"
endpoint_result = -11

[[record]]
compound = "OCC1CCCN1c1cc(N2CCc3ccccc3C2)ncn1 (stereo unspecified)"
measured_metric = "cytotoxicity at 70.5 h"
endpoint_result = 31.1

[[record]]
compound = "COCc1nc2nc(O)c3c(n2n1)NC(=O)CC3c1ccccc1Cl (stereo unspecified)"
measured_metric = "cytotoxicity at 70.5 h"
endpoint_result = 4.14

[[record]]
compound = "COCC1CN(C(=O)c2ccnnc2)Cc2ncnn2C1 (stereo unspecified)"
measured_metric = "cytotoxicity at 70.5 h"
endpoint_result = -3.33

[[record]]
compound = "CCCn1cnnc1CN(C)C(=O)C1CCCN(C2CCN(C)CC2)C1 (stereo unspecified)"
measured_metric = "cytotoxicity at 70.5 h"
endpoint_result = -9.33

[[record]]
compound = "CCn1c(CC2CCN(S(=O)(=O)c3cccc(C)c3)CC2)nn(C)c1=O"
measured_metric = "cytotoxicity at 70.5 h"
endpoint_result = -4.11

[[record]]
compound = "COCC(=O)N1C[C@@H]2OCCN(Cc3c(C)noc3C)[C@@H]2C1"
measured_metric = "cytotoxicity at 70.5 h"
endpoint_result = -11.4


The reported value for `COCCNS(=O)(=O)c1ccc2c(c1)CCN(C(=O)c1cncn1C)C2` in terms of cytotoxicity at 70.5 h is -5.18

The reported value for `Cc1nc(N2CCN(C(=O)CC3CCCC3)CC2)c2cnn(C)c2n1` in terms of cytotoxicity at 70.5 h is 0.786

The reported value for Cc1ccc(C(C)(O)CNC(=O)c2sccc2OC(F)F)o1 (stereo unspecified) in terms of cytotoxicity at 70.5 h is -12

###

Quick reference: cytotoxicity at 70.5 h of the listed items.
- ASSAY INFO: Human HepG2 cell viability assay in 384 well format
- Assay type: toxicity, cell-based
- Set-up: dose 125 nL, time 70.5 hour; concentration not given beside the values
- CONDITION DESCRIPTION: HepG2 cells, read-out: Inhibition
Could you give me the number in %? Just the number is fine.

Solved entries (count: 8):
[[record]]
molecule = "c1ccc(C(Cn2cnnc2)N2CCOCC2)nc1 (configuration not stated)"
endpoint_result = 0.586

[[record]]
molecule = "CN1CCOC[C@H]1c1nc(-c2ccccc2)c[nH]1"
endpoint_result = -9.46

[[record]]
molecule = "CC1CCCN(Cc2ccc(CNC(=O)NCc3ccon3)cc2)C1 (configuration not stated)"
endpoint_result = 2.37

[[record]]
molecule = "CNS(=O)(=O)CCNc1cc(C)nc2cc(C)nn12"
endpoint_result = -2.52

[[record]]
molecule = "c1cncc(CN(Cc2ccc3c(c2)OCCO3)CC2CCCO2)c1 (configuration not stated)"
endpoint_result = 25.2

[[record]]
molecule = "O=C(NCCn1ccnc1-c1cc2n(n1)CCNC2)c1ccncc1"
endpoint_result = -5.81

[[record]]
molecule = "O=C(NCc1ccccn1)[C@@H]1COC[C@H]2CNC[C@H]21"
endpoint_result = -12.9

[[record]]
molecule = "COc1ccc(C2SCC(=O)Nc3n[nH]cc32)c(OC)c1OC (configuration not stated)"
endpoint_result = 5.69


The reported value for CN(C)CCCn1ccnc1C1CCCN(c2ncc(Cl)cc2F)C1 (configuration not stated) in terms of cytotoxicity at 70.5 h is -2.12

The reported value for `Cn1nc(C(=O)NN2CCOCC2)c(Cl)c1C(F)(F)F` in terms of cytotoxicity at 70.5 h is -3.83

The reported value for `CS(=O)(=O)CCNCc1ccc(OCc2cscn2)cc1` in terms of cytotoxicity at 70.5 h is -3.66

The reported value for `CN(C)c1cccc(CNCc2ccc(N3CCOCC3)cc2)c1` in terms of cytotoxicity at 70.5 h is 14

###

- ASSAY INFO: Human HepG2 cell viability assay in 384 well format
- Assay type: toxicity, cell-based
- Parameters: dose 125 nL, time 70.5 hour; concentration not given beside the values
- CONDITION DESCRIPTION: HepG2 cells, read-out: Inhibition
MEASURED METRIC: cytotoxicity at 70.5 h
Kindly format the answer as number then unit.

Solved entries (count: 3):
[[record]]
compound = "COc1c(F)cc(NC(=O)N2CCC(CSC)C2)cc1F (stereo unspecified)"
endpoint_result = "16.5%"

[[record]]
compound = "O=S(=O)(CCCN1CCCC(Cn2cncn2)C1)c1ccccc1 (stereo unspecified)"
endpoint_result = "4.82%"

[[record]]
compound = "COCCN1CCN(Cc2ccc(OCc3nccn3C)cc2)CC1"
endpoint_result = "-14.3%"


The reported value for CC(OCC1CC1)C(=O)Nc1nccn1Cc1ccccc1 (stereo unspecified) in terms of cytotoxicity at 70.5 h is -14.6%

The reported value for CCOc1ncccc1C(=O)N1CCCC(n2nc(C)cc2C)C1 (stereo unspecified) in terms of cytotoxicity at 70.5 h is -5.39%

The reported value for `CC(C)(O)CN1CCN(C(=O)c2cccn2Cc2ccccc2)CC1` in terms of cytotoxicity at 70.5 h is -6.76%

###

Quick reference: cytotoxicity at 70.5 h of the listed items.
- ASSAY INFO: Human HepG2 cell viability assay in 384 well format
- Assay type: toxicity, cell-based
- Design: dose 125 nL, time 70.5 hour; concentration not given beside the values
- CONDITION DESCRIPTION: HepG2 cells, read-out: Inhibition
Could you give me the number in %? Just the number is fine.

[[record]]
compound = "COCC(=O)NC[C@H]1C[C@@H]2CCN1C[C@@H]2CN1CCc2ccccc21"
endpoint_result = -3.32

[[record]]
compound = "CN(C)Cc1nc(-n2cnc(C(=O)NCC3CC3)c2)n2ccccc12"
endpoint_result = -3.22

[[record]]
compound = "Cc1nc(CN2C[C@@H]3CN(C(=O)Cc4ccccn4)C[C@@H]3C2)cs1"
endpoint_result = -4.03

[[record]]
compound = "c1cncc(-n2cnnc2CC2CCNCC2)c1"
endpoint_result = -0.719


The reported value for O=C(O)c1cc2c(nc1NCC1CC1)CCN(C1CCOC1)CC2 (stereo not drawn) in terms of cytotoxicity at 70.5 h is -4.26

The reported value for `Cn1nccc1CCNC(=O)[C@H]1CNC[C@H](C(=O)N2CCCC2)C1` in terms of cytotoxicity at 70.5 h is 0.341

The reported value for `O=C(Nc1ccccc1F)N1CCN(Cc2noc(C3CC3)n2)CC1` in terms of cytotoxicity at 70.5 h is -10.2

The reported value for `Cc1ccc(C(=O)N2C[C@H]3CCC[C@@]3(COCC3CCOCC3)C2)o1` in terms of cytotoxicity at 70.5 h is -5.19

The reported value for `C=C(Cl)CN1CCC(C(=O)c2cc(F)ccc2F)CC1` in terms of cytotoxicity at 70.5 h is -10.5

The reported value for `C[C@@H]1CN(c2cc(N3CCC(O)CC3)ncn2)C[C@@]1(O)C1CCC1` in terms of cytotoxicity at 70.5 h is 35.1

The reported value for `O=C(Cc1ccco1)N1C[C@H]2CCC[C@@]2(COCC2CC2)C1` in terms of cytotoxicity at 70.5 h is -11.1

The reported value for `Cn1nc2c(cc1=O)CN(CC(=O)Nc1ccc(Cl)cn1)CC2` in terms of cytotoxicity at 70.5 h is -3.49

The reported value for CC(C(=O)Nc1ccc(N2CCCC2)nc1)n1ccnc1 (stereo not drawn) in terms of cytotoxicity at 70.5 h is -11.6

The reported value for `CC(=O)N(Cc1ccc(NCc2cnn(C(C)(C)C)c2)cc1)C(C)C` in terms of cytotoxicity at 70.5 h is -3.55

The reported value for `CN(C)C(=O)CN1C[C@H]2CCN(C(=O)c3ccccc3)CC[C@H]2S1(=O)=O` in terms of cytotoxicity at 70.5 h is -10.6

The reported value for `CC(C)c1ncc2c(n1)CN(Cc1nc(-c3ccco3)no1)CC2` in terms of cytotoxicity at 70.5 h is -8.2

###

Quick reference: cytotoxicity at 70.5 h of the listed items.
- ASSAY INFO: Human HepG2 cell viability assay in 384 well format
- Type: toxicity, cell-based
- Parameters: dose 125 nL, time 70.5 hour; concentration not given beside the values
- CONDITION DESCRIPTION: HepG2 cells, read-out: Inhibition
Could you give me the number in %? Just the number is fine.

Solved entries (count: 8):
[[record]]
compound = "O=C(Cc1ccc(F)cc1F)NCC(=O)Nc1ccccn1"
endpoint_result = -5.81

[[record]]
compound = "CCNc1ncc(C(=O)Nc2nnc(N3CCCCC3)[nH]2)s1"
endpoint_result = -2.41

[[record]]
compound = "Cc1nn(C)c(C)c1-c1cc(-c2cc(CC(=O)O)cs2)nc(N)c1C#N"
endpoint_result = -7.79

[[record]]
compound = "CCc1nc(CN(C)C(=O)c2ccc(OCCCOC)nc2)cs1"
endpoint_result = -7.45

[[record]]
compound = "CN1CCc2[nH]cnc2C12CCN(Cc1ccc3nsnc3c1)CC2"
endpoint_result = 0.284

[[record]]
compound = "c1cnn(CC2CN(CC3CCCC3)CCO2)c1 (stereo unspecified)"
endpoint_result = -9.69

[[record]]
compound = "Cc1noc(C)c1CCC(=O)N1CCN(CCn2cccn2)CC1"
endpoint_result = 14.6

[[record]]
compound = "CS(=O)(=O)c1ccc(O[C@H]2COCCN(C(=O)c3ccno3)C2)cc1"
endpoint_result = -2.76


The reported value for `CCN1CC[C@@]2(C(=O)N3CCOCC3)CCN(C(=O)C(C)C)CC[C@@H]12` in terms of cytotoxicity at 70.5 h is 18.4

The reported value for `Cc1ccc(CN2CCN(Cc3ccc(N(C)C)nc3)CC2=O)cc1C` in terms of cytotoxicity at 70.5 h is -1.36

The reported value for `CC(=O)c1c(C)nn(S(=O)(=O)c2ccc(C)cc2)c1C` in terms of cytotoxicity at 70.5 h is 0.514
